- assayNotes: Chemical and physical stability studies under ICH storage conditions (extraction, HPLC, appearance)
- Assay type: physicochemical
- experimentalConditions: in Composition A; 40° C./75% RH; one month
Structures can show the parent of a compound that is named as a salt.
readout: calc. percentage of actives after storage for one month, 40° C. (%)
Please state the figure in %; there is no need to write the unit.

Worked examples, 2 molecules total:
{"molecule": "CCCOC(=O)c1ccc(O)cc1", "recordedValue": 102}
{"molecule": "CN(C)CCC=C1c2ccccc2CCc2ccccc21 [Amitriptyline Hydrochloride, Amitriptyline hydrochloride]", "recordedValue": 103}

Exam item: Any idea what calc. percentage of actives after storage for one month, 40° C. was measured for COC(=O)c1ccc(O)cc1 ?
Marked response: 102

Exam item: Another molecule: CNC1(c2ccccc2Cl)CCCCC1=O (stereo not shown) [Ketamine Hydrochloride, Ketamine hydrochloride]
Marked response: 103

----------
- assayNotes: Chemical and physical stability studies under ICH storage conditions (extraction, HPLC, appearance)
- Type: physicochemical
- experimentalConditions: in Composition A, before storage, HPLC
Where a name gives a salt, the structure may show the parent alone.
The entries below are paired with their reported calculated initial percentage of actives.
Report field: quantity (unit follows the number).

Worked examples follow.
{"molecule": "CNC1(c2ccccc2Cl)CCCCC1=O (stereo not shown) [Ketamine Hydrochloride, Ketamine hydrochloride]", "readout": "calculated initial percentage of actives", "recordedValue": "100.4%"}
{"molecule": "CN(C)CCC=C1c2ccccc2CCc2ccccc21 [Amitriptyline Hydrochloride, Amitriptyline hydrochloride]", "readout": "calculated initial percentage of actives", "recordedValue": "102.5%"}
{"molecule": "COC(=O)c1ccc(O)cc1", "readout": "calculated initial percentage of actives", "recordedValue": "104.4%"}

Exam item: Consider the molecule CCCOC(=O)c1ccc(O)cc1 and give its measured calculated initial percentage of actives.
Marked response: 101.8%

The reported numbers originate from patent US6638981B2.
